Assay: first-order primary biodegradation rate constant k (sorption-corrected, fDis-corrected) (d-1); higher = faster biodegradation
Conditions: river segment: Switzerland (CH) U_Pris; incubation temperature 17 °C
Structures can show the parent of a compound that is named as a salt.
Classes by first-order primary biodegradation rate constant k: lower level = under 0.06, middle level = from 0.06 up to 0.4, upper level = 0.4 and over

Please let me know in which category the item CC(C(=O)O)c1cccc(C(=O)c2ccccc2)c1 (stereo not drawn) [Ketoprofen] belongs. upper level

For this compound, which bin applies? COc1cccc(C2(O)CCCCC2CN(C)C)c1 (stereo not drawn) [Tramadol] lower level

Into which category would you place CN(C)CCCC1(c2ccc(F)cc2)OCc2cc(C#N)ccc21 (stereo not drawn) [Citalopram] ? middle level

Just checking, what class would you give CNC(=C[N+](=O)[O-])NCCSCc1ccc(CN(C)C)o1 [Ranitidine] here? upper level

Could you place C=CCOc1ccccc1OCC(O)CNC(C)C (stereo not drawn) [Oxprenolol] in its proper category? Many thanks. lower level

// bin(item) where item = c1ccc([C@H]2CN3CCSC3=N2)cc1 [Levamisole] middle level

Categorize the following entry: COc1c(Cl)ccc(Cl)c1C(=O)O [Dicamba] middle level

Field: class (first-order primary biodegradation rate constant k) — entry: Cc1ccc(NC(=O)N(C)C)cc1Cl [Chlortoluron] lower level

Quick check: band for CCOC(=O)CC(O)(CC(=O)OCC)C(=O)OCC [Triethyl citrate] middle level

Bin this entry: Nc1ccc(S(=O)(=O)Nc2nccs2)cc1 [Sulfathiazole] lower level

Assign a category based on measured first-order primary biodegradation rate constant k for CC(C)(C)C(=O)C(Oc1ccc(Cl)cc1)n1ccnc1 (stereo not drawn) [Climbazole] and give only the class name. upper level

Into which bin does this compound go? COc1cc(NS(=O)(=O)c2ccc(N)cc2)nc(OC)n1 [Sulfadimethoxine] middle level

Pick a category. Item: CCCCC(=O)N(Cc1ccc(-c2ccccc2-c2nnn[nH]2)cc1)[C@H](C(=O)O)C(C)C [Valsartan] upper level

Into which bin does this compound go? COCC(C)N(C(=O)CCl)c1c(C)csc1C (stereo not drawn) [Dimethenamid] lower level

Which bin should I file Cc1ccc(S(=O)(=O)O)cc1 [p-Toluenesulfonic acid] under? middle level

Class? Entry: Cc1cc(Cl)ccc1OC(C)C(=O)O (stereo not drawn) [Mecoprop] upper level

Which first-order primary biodegradation rate constant k category applies to COC(=O)Nc1nc2ccccc2[nH]1 [Carbendazim] here? lower level

Band for O=[N+]([O-])/N=C1\NCCN1Cc1ccc(Cl)nc1 [Imidacloprid] ? lower level

Hey, which category is CC(C)N(C(=O)CCl)c1ccccc1 [Propachlor] in, do you know? upper level

# classify by first-order primary biodegradation rate constant k band: CC(C)N(C(=O)COc1nnc(C(F)(F)F)s1)c1ccc(F)cc1 [Flufenacet] middle level

Tag the class for O=[N+]([O-])c1ccc(Cc2ccncc2)cc1 [4-(4-Nitrobenzyl)pyridine] upper level

Input CC(C)NCC(O)COc1ccc(COCCOC(C)C)cc1 (stereo not drawn) [Bisoprolol] ; output its category upper level

GET /class?item= CN(C)C(=O)Nc1ccc(Cl)c(Cl)c1 [Diuron] middle level

Which first-order primary biodegradation rate constant k category applies to c1ccc2[nH]nnc2c1 [Benzotriazole] here? lower level

Where would NCC1(CC(=O)O)CCCCC1 [Gabapentin] land among the classes by reported first-order primary biodegradation rate constant k? middle level

Textbook exercise: identify the category of the compound given here, COc1cc(Cc2cnc(N)nc2N)cc(OC)c1OC [Trimethoprim] , according to its measured value. upper level

// return the class label for CCNc1nc(NC(C)(C)C)nc(SC)n1 [Terbutryn] middle level

Tag the class for COc1ccc(NS(=O)(=O)c2ccc(N)cc2)nn1 [Sulfamethoxypyridazine] lower level

Which of the defined bands does the recorded first-order primary biodegradation rate constant k of CCOc1nc2cccc(C(=O)O)c2n1Cc1ccc(-c2ccccc2-c2nnn[nH]2)cc1 [Candesartan] sit within? lower level

Looking at N#Cc1cc(Br)c(O)c(Br)c1 [Bromoxynil] , which class would you pick? middle level

GET /class?item= CC(=O)NC[C@H]1CN(c2ccc(N3CCOCC3)c(F)c2)C(=O)O1 [Linezolid] middle level

Determine which band this compound sits in: Cc1cc(O)cc(C)c1Cl [4-Chloro-3,5-dimethylphenol] upper level

Class (by measured first-order primary biodegradation rate constant k) for Cc1ccc(C)c(OCCCC(C)(C)C(=O)O)c1 [Gemfibrozil] upper level

----------
Test: first-order primary biodegradation rate constant k (sorption-corrected, fDis-corrected) (d-1); higher = faster biodegradation
Conditions: river segment: Switzerland (CH) U_Contam; incubation temperature 17 °C
Kindly supply the reported first-order primary biodegradation rate constant k values for the records listed here.

Please report the measured first-order primary biodegradation rate constant k for COCC(C)N(C(=O)CCl)c1c(C)csc1C (centres undefined) 0.0318

Tell me its first-order primary biodegradation rate constant k given COc1cccc(C2(O)CCCCC2CN(C)C)c1 (centres undefined) as the entry. 0.0131

Output measured first-order primary biodegradation rate constant k for this item: `COc1c(Cl)ccc(Cl)c1C(=O)O` 0.0133

Specify reported first-order primary biodegradation rate constant k for the compound shown: CC(C)NCC(O)c1ccc(NS(C)(=O)=O)cc1 (centres undefined) 0.108

----------
Assay: first-order primary biodegradation rate constant k (sorption-corrected, fDis-corrected) (d-1); higher = faster biodegradation
Conditions: river segment: Germany (DE) T_Contam; incubation temperature 24 °C
PARAMETER_MEASURED: first-order primary biodegradation rate constant k
// return a plain number; no unit text

Answer with the recorded first-order primary biodegradation rate constant k of CC(C)NCC(O)COc1ccc(COCCOC(C)C)cc1 (stereo not drawn) only. 0.352

Using known records, supply first-order primary biodegradation rate constant k for `CN(C)C(=O)Oc1cccc([N+](C)(C)C)c1` 0.101

Specify reported first-order primary biodegradation rate constant k for the compound shown: Cc1ccc(C(C)NC(=O)[C@@H](NC(=O)OC(C)C)C(C)C)cc1 (stereo partly drawn) 0.275

Note down first-order primary biodegradation rate constant k recorded for `CCCCCCCCCCN` 54.6

Give the reported value of first-order primary biodegradation rate constant k for this record: `N#Cc1cc(Br)c(O)c(Br)c1` 0.133

For the compound `COc1cc(NS(=O)(=O)c2ccc(N)cc2)nc(OC)n1` , give its measured first-order primary biodegradation rate constant k value. 0.416

Report measured first-order primary biodegradation rate constant k; entry is `O=[N+]([O-])/N=C1\NCCN1Cc1ccc(Cl)nc1` 0.0495

Recall and state the measured first-order primary biodegradation rate constant k for `COc1ccc(NC(=O)N(C)C)cc1Cl` . 0.106

Recall and state the measured first-order primary biodegradation rate constant k for CC(C)(C)C(=O)C(Oc1ccc(Cl)cc1)n1ccnc1 (stereo not drawn) . 0.282

Given NS(=O)(=O)c1cc(C(=O)O)c(NCc2ccco2)cc1Cl [Furosemide] , respond with its first-order primary biodegradation rate constant k. 0.171

Determine its reported first-order primary biodegradation rate constant k: `Cc1cc(NS(=O)(=O)c2ccc(N)cc2)no1` 0.143

Return the recorded first-order primary biodegradation rate constant k value; entry: C=CCOc1ccccc1OCC(O)CNC(C)C (stereo not drawn) 1.9

Retrieve first-order primary biodegradation rate constant k measured for CC(C)NCC(O)c1ccc(NS(C)(=O)=O)cc1 (stereo not drawn) and print it. 0.195

----------
Test: first-order primary biodegradation rate constant k (sorption-corrected, fDis-corrected) (d-1); higher = faster biodegradation
Settings: river segment: Greece (EL) G_Pris; incubation temperature 19 °C
Consider the following molecules; for each one, report its first-order primary biodegradation rate constant k.
Just the number.

Check the records and state first-order primary biodegradation rate constant k for `Nc1nc(NC2CC2)c2ncn([C@H]3C=C[C@@H](CO)C3)c2n1` 2.35

Name the recorded first-order primary biodegradation rate constant k of the item `CC(C)N(C(=O)COc1nnc(C(F)(F)F)s1)c1ccc(F)cc1` in your answer. 0.0751

Given the molecule `CCCCc1nc(Cl)c(CO)n1Cc1ccc(-c2ccccc2-c2nnn[nH]2)cc1` , write its reported first-order primary biodegradation rate constant k. 0.781

Supply recorded first-order primary biodegradation rate constant k for `CCCCCCCCCCN` here. 29.1

Give the measured first-order primary biodegradation rate constant k for Cc1ccc(C(C)NC(=O)[C@@H](NC(=O)OC(C)C)C(C)C)cc1 (stereo partly drawn) 0.138

Supply reported first-order primary biodegradation rate constant k belonging to this molecule: `NCC1(CC(=O)O)CCCCC1` 0.0145

Report first-order primary biodegradation rate constant k for `Cc1ccc(C)c(OCCCC(C)(C)C(=O)O)c1` 0.227

Report measured first-order primary biodegradation rate constant k; entry is CC(C(=O)O)c1cccc(C(=O)c2ccccc2)c1 (stereo not drawn) 0.36

----------
Assay: first-order primary biodegradation rate constant k (sorption-corrected, fDis-corrected) (d-1); higher = faster biodegradation
Settings: river segment: Greece (EL) A_Contam; incubation temperature 19 °C
Field: first-order primary biodegradation rate constant k. Provide a value for each of the molecules that follow.
Give a plain numeric answer without units written out.

Quick one: give measured first-order primary biodegradation rate constant k for CCOc1nc2cccc(C(=O)O)c2n1Cc1ccc(-c2ccccc2-c2nnn[nH]2)cc1 [Candesartan] 0.00917

Please list first-order primary biodegradation rate constant k recorded for the molecule Nc1nc(NC2CC2)c2ncn([C@H]3C=C[C@@H](CO)C3)c2n1 [Abacavir] 2.15

Supply first-order primary biodegradation rate constant k value. Item: NC(=O)N1c2ccccc2C=Cc2ccccc21 [Carbamazepine] 0.00808

Check the records and state first-order primary biodegradation rate constant k for CCNc1nc(NC(C)(C)C)nc(SC)n1 [Terbutryn] 0.0617

Annotate the molecule CN(C)CCN1C(=O)c2ccccc2N(C)c2ccccc21 [Dibenzepin] with its measured first-order primary biodegradation rate constant k. 0.19

Look up and report measured first-order primary biodegradation rate constant k for this entry: CC(C)c1ccc(NC(=O)N(C)C)cc1 [Isoproturon] 0.072

Tell us which first-order primary biodegradation rate constant k value is on record for NCC1(CC(=O)O)CCCCC1 [Gabapentin] 0.0518

Identify first-order primary biodegradation rate constant k associated with the molecule COc1ccc(NS(=O)(=O)c2ccc(N)cc2)nn1 [Sulfamethoxypyridazine] 0.161

Specify measured first-order primary biodegradation rate constant k for COc1ccc(C(CN(C)C)C2(O)CCCCC2)cc1 (centres undefined) [Venlafaxine] . 1.22

Supply reported first-order primary biodegradation rate constant k belonging to this molecule: c1ccc2[nH]nnc2c1 [Benzotriazole] 0.316

Look up first-order primary biodegradation rate constant k of CCOC(=O)C1CC(=O)C(=C(O)C2CC2)C(=O)C1 (centres undefined) [Trinexapac-ethyl] and report it. 0.435

Read off the recorded first-order primary biodegradation rate constant k for O=S(=O)(O)NC1CCCCC1 [Cyclamate] 0.826

Please look at this molecule and report its first-order primary biodegradation rate constant k: NC(=O)c1cccnc1 [Nicotinamide] 0.821

Hello, please tell me recorded first-order primary biodegradation rate constant k for this one: Cc1ccc(S(=O)(=O)O)cc1 [p-Toluenesulfonic acid] 0.369

Specify first-order primary biodegradation rate constant k for CN(C)C(=O)Nc1ccc(Cl)c(Cl)c1 [Diuron] and stop. 0.283

In one line, give reported first-order primary biodegradation rate constant k of the entry CC(C)(Oc1ccc(CCNC(=O)c2ccc(Cl)cc2)cc1)C(=O)O [Bezafibrate] . 0.408

Give a short answer stating reported first-order primary biodegradation rate constant k for CC[C@@H](C(N)=O)N1CCCC1=O [Levetiracetam] . 0.382

State its first-order primary biodegradation rate constant k: CCCCc1nc(Cl)c(CO)n1Cc1ccc(-c2ccccc2-c2nnn[nH]2)cc1 [Losartan] 0.323

For the molecule Nc1ccc(S(=O)(=O)Nc2nccs2)cc1 [Sulfathiazole] , give its measured first-order primary biodegradation rate constant k value. 1.21

Please report the measured first-order primary biodegradation rate constant k for O=C(NCC1CCCCN1)c1cc(OCC(F)(F)F)ccc1OCC(F)(F)F (centres undefined) [Flecainide] 0.228

Check the records and state first-order primary biodegradation rate constant k for CCOc1ccccc1OCCN[C@H](C)Cc1ccc(OC)c(S(N)(=O)=O)c1 [Tamsulosin] 0.786

Give me measured first-order primary biodegradation rate constant k, please, for this molecule: O=[N+]([O-])c1ccc(Cc2ccncc2)cc1 [4-(4-Nitrobenzyl)pyridine] 1.09

Provide first-order primary biodegradation rate constant k value for the following molecule: Cc1ccc(C(C)NC(=O)[C@@H](NC(=O)OC(C)C)C(C)C)cc1 (some centres undefined) [Iprovalicarb] 0.258

Using the record for COCCc1ccc(OCC(O)CNC(C)C)cc1 (centres undefined) [Metoprolol] , state its measured first-order primary biodegradation rate constant k. 0.291
